- Test system: SK-MEL-2 melanoma
- protocol.details: NCI tumour cell line growth inhibition, 48 h

compound	TGI
CN(O)C(=O)CCC(NC(=O)CCC(N)C(=O)O)C(=O)NCC(=O)O (stereo not given)	> 100 µM
Cc1ncn(-c2ccccc2O)c1C	> 100 µM
CCOC(=O)CNC(=O)C(CCC(=O)N(C)O)NC(=O)CCC(N)C(=O)O (stereo not given)	> 100 µM
O=C1c2ccccc2C(=O)N1CCc1ncc(-c2ccccc2)[nH]1	> 100 µM
Cc1ccc2c(c1)nc1n2C(c2c(F)cccc2F)SC1 (stereo not given)	48.2 µM

###

- System: SNB-75 CNS
- protocol.details: NCI tumour cell line growth inhibition, 48 h
Below is a list of entries, each paired with its recorded TGI value.

molecule	TGI
CSc1ccc(C2=NN(C(C)=O)C(c3ccc(-c4cc(Cl)c(Cl)cc4Cl)o3)C2)cc1 (stereo not given)	43.2 µM
Cc1ccc(S(=O)(=O)ON2C(=O)c3cccc4cc([N+](=O)[O-])cc(c34)C2=O)cc1	> 100 µM
O=[N+]([O-])c1ncc(N(CCO)CCO)s1	> 100 µM
c1ccc(SC(Sc2ccccc2)=C2CCC2)cc1	> 100 µM
C=C1C2CCC3C4(C)CCCC(C)(C(=O)O)C4CCC3(C2)C1OC(=O)/C(C)=C/C (stereo not given)	> 100 µM
Cc1ccc(OP(=O)(Oc2ccc(C)cc2)N2C=Cc3ccccc3C2C#N)cc1 (stereo not given)	> 100 µM
Cc1cc2c(F)c(Oc3ncnc(Nc4ccc(N5C[C@@H](C)N[C@@H](C)C5)cc4)c3C#N)cc(F)c2[nH]1	3.18 µM
COC(=O)C1CCC(=O)N1C(c1ccc(OC)cc1)c1cc(OC)c(OC)c(OC)c1 (stereo not given)	> 94.7 µM
COC(NC(=O)Nc1ccc(C)cc1)(C(F)(F)F)C(F)(F)F	> 100 µM
c1ccc2c3c(ccc2c1)-c1[nH]ncc1CCO3	> 74.9 µM
